The entries below are paired with their reported selective drug sensitivity score.
- Test system: SUP-B15
- ASSAY_PROCEDURE: selective drug sensitivity score (sDSS, relative to normal bone marrow) (sDSS (score)); higher = more potent and effective on the cell line relative to normal bone marrow cells
- CONDITIONS_USED: 72 h
Please respond with just the number, no unit label.

As a guide, the following entries are already answered.
COMPOUND: COc1cc(CCc2cc(NC(=O)c3ccc(N4CC(C)NC(C)C4)cc3)n[nH]2)cc(OC)c1 (centres undefined) [AZD4547] (top concentration 1000 nM)
TARGET_OF_ASSAY: SUP-B15
MEASURED_RESULT: -0.14
--
COMPOUND: CCOc1ccn(-c2ccc(F)cc2)c(=O)c1C(=O)Nc1ccc(Oc2ccnc(N)c2Cl)c(F)c1 (top concentration 2500 nM)
TARGET_OF_ASSAY: SUP-B15
MEASURED_RESULT: 3.5
--
COMPOUND: Clc1ccccc1C(c1ccccc1)(c1ccccc1)n1cccn1 [TRAM-34] (top concentration 1000 nM)
TARGET_OF_ASSAY: SUP-B15
MEASURED_RESULT: -0.08
--
COMPOUND: CC(C)[C@H](C(=O)Nc1ccc(C(=O)NO)cc1)c1ccccc1 [AR-42] (top concentration 10000 nM)
TARGET_OF_ASSAY: SUP-B15
MEASURED_RESULT: 9.58
--
COMPOUND: CC1(C)CCC(c2ccc(Cl)cc2)=C(CN2CCN(c3ccc(C(=O)NS(=O)(=O)c4ccc(N[C@H](CCN5CCOCC5)CSc5ccccc5)c(S(=O)(=O)C(F)(F)F)c4)cc3)CC2)C1 [Navitoclax] (top concentration 10000 nM)
TARGET_OF_ASSAY: SUP-B15
MEASURED_RESULT: 27.5
--
COMPOUND: Cc1ccc(NS(=O)(=O)c2cccc(C#N)c2)c2[nH]cc(C#N)c12 [E7820] (top concentration 50000 nM)
TARGET_OF_ASSAY: SUP-B15;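 also: ALL cell lines in 384-well plates, five doses spanning 10,000-fold, each plate scaled between vehicle and 100 µmol/L benzalkonium chloride controls, sDSS an adapted area-under-curve metric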
MEASURED_RESULT: 8.72

Give the reported value of selective drug sensitivity score for this record: O=c1ncn2nc(Sc3ccc(F)cc3F)ccc2c1-c1c(Cl)cccc1Cl [Neflamapimod] (top concentration 10000 nM)
0.5

Answer with the recorded selective drug sensitivity score for the compound listed here: CC(=O)O[C@]1(C(C)=O)CC[C@H]2[C@@H]3C=C(C)C4=CC(=O)CC[C@]4(C)[C@H]3CC[C@@]21C [Megestrol_acetate] (top concentration 10000 nM)
0.32

Annotate the compound CNC(=O)c1ccc(N2C(=S)N(c3cnc(C#N)c(C(F)(F)F)c3)C(=O)C23CCC3)cc1F [Apalutamide] (top concentration 10000 nM) with its measured selective drug sensitivity score.
0
